meta.source: patent US20220031857A1

Below is a list of entries, each paired with its recorded Octet signal as second antibody after 8D3 value.
Biological target: T1, recombinant human TfR1 (transferrin receptor 1) (human, UniProt P02786 89-760)
T1 construct: Bought recombinant His-tagged protein; also called hTfR1
T1 sequence (P02786 89-760 limits assumed): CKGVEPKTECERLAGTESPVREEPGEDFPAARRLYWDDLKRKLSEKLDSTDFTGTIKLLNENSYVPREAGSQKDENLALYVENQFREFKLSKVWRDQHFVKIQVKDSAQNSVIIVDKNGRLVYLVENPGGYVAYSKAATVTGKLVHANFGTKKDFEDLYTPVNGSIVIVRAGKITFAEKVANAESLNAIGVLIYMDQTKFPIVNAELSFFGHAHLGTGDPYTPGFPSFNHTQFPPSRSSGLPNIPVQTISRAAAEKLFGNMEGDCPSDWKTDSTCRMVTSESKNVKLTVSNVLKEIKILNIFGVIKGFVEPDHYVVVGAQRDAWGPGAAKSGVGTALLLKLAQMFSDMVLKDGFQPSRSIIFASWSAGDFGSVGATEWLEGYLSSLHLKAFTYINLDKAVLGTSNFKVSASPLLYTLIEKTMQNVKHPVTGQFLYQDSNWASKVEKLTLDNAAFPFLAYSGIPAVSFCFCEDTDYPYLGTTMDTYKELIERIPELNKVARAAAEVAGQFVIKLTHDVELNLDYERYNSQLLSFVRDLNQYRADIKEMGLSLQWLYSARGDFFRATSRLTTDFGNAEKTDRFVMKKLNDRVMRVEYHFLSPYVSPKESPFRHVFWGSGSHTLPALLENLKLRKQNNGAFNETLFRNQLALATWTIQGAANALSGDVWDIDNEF
Assay: Octet, human TfR1 immobilised; 8D3 as first antibody, which does not bind human TfR1 (grey column); white cell
Give only the figure.

Sample answers from the record:
Clone 12 VNAR-Fc fusion protein (Fc fusion, Bivalent VNAR-Fc; not shown: glycine/serine linker (GxSx)n extending the hinge; human IgG1 Fc (hinge, CH2, CH3) of pFUSE-hIgG1e3-Fc2; G236 also deleted) ARVDQTPQTITKETGESLTINCVLRDSICALSSTHWYRKKSGSTNEESISKGGRYVETVNSGSKSFSLRINDLTVEDSGTYRCKVVRSGVGPCWADVYGGGTAVTVNA : 0.403
Clone 1 VNAR-Fc fusion protein (Fc fusion, Bivalent VNAR-Fc; also called clone 1-Fc; not shown: glycine/serine linker (GxSx)n extending the hinge; human IgG1 Fc (hinge, CH2, CH3) of pFUSE-hIgG1e3-Fc2; G236 also deleted) ARVDQTPQTITKETGESLTINCVLRDNNCALSTTYWYRKKSGSTNEENISKGGRYVETVNSGSKSFSLKINDLTVEDSGTYRCNVRDVQACGNDWVWLDVYGGGTVVTVNA : 0.329
Clone 39 VNAR-Fc fusion protein (Fc fusion, Bivalent VNAR-Fc; not shown: glycine/serine linker (GxSx)n extending the hinge; human IgG1 Fc (hinge, CH2, CH3) of pFUSE-hIgG1e3-Fc2; G236 also deleted) ARVDQTPQTITKETGESLTINCVLRDSNCALSSTLWYRTKSGSRNEESISKGGRYVETVNSGSKSFSLKINDLTVEDSGTYRCNVQGMVYDGSSFWWCDVYGDSTAVTVNA : 0.609
Clone 10 VNAR-Fc fusion protein (Fc fusion, Bivalent VNAR-Fc; also called clone 10-Fc; Clone 10-hFc; not shown: glycine/serine linker (GxSx)n extending the hinge; human IgG1 Fc (hinge, CH2, CH3) of pFUSE-hIgG1e3-Fc2; G236 also deleted) ARVDQTPQTITKETGESLTINCVLRDSNCALSSTYWYRKKSGSTNEENISKGGRYVETVNSGSKSFSLRINDLTVEDSGTYRCNVVQYPSYNNYFWCDVYGDGTAVTVNA : 0.546

Next item in the queue.
Asked: Using the record for Clone 2 VNAR-Fc fusion protein (Fc fusion, Bivalent VNAR-Fc; not shown: glycine/serine linker (GxSx)n extending the hinge; human IgG1 Fc (hinge, CH2, CH3) of pFUSE-hIgG1e3-Fc2; G236 also deleted) ARVDQTPQTITKETGESLTINCVLRDNNCALSTTYWYRKKSGSTNEENISKGGRYVETVNSGSKSFSLKINDLTVEDSGTYRCNVFGVDNGWWCDVYGGGTVVTVNA , report its Octet signal as second antibody after 8D3.
Given back: 0.454
